tgt: MKNK1 (Homo sapiens, UniProt Q9BUB5, T385D)
Construct: GST (N); purchased Carna Biosciences 02-145; host or cells: insect cells (baculovirus expression system)
Sequence (Q9BUB5 1-424 isoform Q9BUB5-2 T344D): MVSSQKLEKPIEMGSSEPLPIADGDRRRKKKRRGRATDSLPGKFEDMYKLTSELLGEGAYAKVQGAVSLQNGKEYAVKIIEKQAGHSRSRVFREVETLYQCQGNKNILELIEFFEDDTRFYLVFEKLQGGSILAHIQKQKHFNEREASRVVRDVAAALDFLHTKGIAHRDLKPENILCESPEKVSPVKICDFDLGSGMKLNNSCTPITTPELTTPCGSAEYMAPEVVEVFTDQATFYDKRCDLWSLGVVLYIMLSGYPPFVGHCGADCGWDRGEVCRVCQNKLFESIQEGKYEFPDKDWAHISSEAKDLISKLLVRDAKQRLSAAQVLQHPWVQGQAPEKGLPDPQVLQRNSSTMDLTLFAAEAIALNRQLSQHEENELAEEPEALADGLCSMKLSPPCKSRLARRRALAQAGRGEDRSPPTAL
assayName: MKNK1 kinase assay (MKNK1 TR-FRET assay)
Format: biochemical
protocolConditions: Table 1c; 10 μM ATP, 15 min preincubation
measuredEndpoint: pIC50
pIC50 here is simply -log10 of the concentration when that concentration is written in mol/L.

Any idea what pIC50 was measured for C[C@H](N)COc1ccc2ncc(-c3cc4c(N5CCOCC5)nccc4o3)n2n1 [III-7] ?
7.94

Now this one: C[C@@H]1CN(c2nccc3oc(-c4cnc5ccc(OC[C@@H](C)N)nn45)cc23)CCO1 [III-121]
7.94

Now this one: CCN(CCO)c1nccc2oc(-c3cnc4ccc(OC[C@@H]5COCCN5)nn34)cc12 [III-40]
8.82

Now this one: CN(C)[C@H]1CCN(c2nccc3oc(-c4cnc5ccc(OC[C@H]6CCC(=O)N6)nn45)cc23)C1 [III-75]
9.10

Now this one: C[C@@H]1CN(c2nccc3oc(-c4cnc5ccc(OC[C@H]6CCC(=O)N6)nn45)cc23)CCO1 [III-118]
8.60

Now this one: COC[C@@H]1CCCN1c1nccc2oc(-c3cnc4ccc(OC[C@H](C)N)nn34)cc12 [III-27]
7.51

Now this one: CCCN(CCOC)c1nccc2oc(-c3cnc4ccc(OC[C@H]5CCC(=O)N5)nn34)cc12 [III-82]
9.40

Now this one: C[C@@H]1COCCN1c1nccc2oc(-c3cnc4ccc(OC[C@@H]5CCC(=O)N5)nn34)cc12 [III-85]
8.32

Now this one: CS(=O)(=O)CCCOc1ccc2ncc(-c3cc4c(N5CCCCC5)nccc4o3)n2n1 [III-45]
8.36

Now this one: CCN(CCOC)c1nccc2oc(-c3cnc4ccc(OC[C@@H]5CNCC(=O)N5)nn34)cc12 [III-113]
9.30

Now this one: CCN(CCOC)c1nccc2oc(-c3cnc4ccc(O[C@H]5C[C@H](N)C5)nn34)cc12 [III-101]
9.10

Now this one: N[C@H]1C[C@H](Oc2ccc3ncc(-c4cc5c(N6CCC[C@@H]6CO)nccc5o4)n3n2)C1 [III-102]
8.17

Now this one: C[C@H](N)COc1ccc2ncc(-c3cc4c(N5CCN(C(C)(C)C)CC5)nccc4o3)n2n1 [III-116]
7.57

Now this one: COc1ccc2ncc(-c3cc4c(N5CCNC(C)(C)C5)nccc4o3)n2n1 [III-130]
8.28

Now this one: CN(C)[C@@H]1CCN(c2nccc3oc(-c4cnc5ccc(OCCCS(C)(=O)=O)nn45)cc23)C1 [III-46]
8.41

Now this one: C[C@H](N)COc1ccc2ncc(-c3cc4c(N5CCNCC5)nccc4o3)n2n1 [III-17]
7.74

Now this one: C[C@H](N)COc1ccc2ncc(-c3cc4c(N5CCC[C@@H]5CO)nccc4o3)n2n1 [III-14]
8.16

Now this one: COCCN(C)c1nccc2oc(-c3cnc4ccc(OC[C@H]5CCC(=O)N5)nn34)cc12 [III-81]
9.52

Now this one: CC(=O)N1CCN(c2nccc3oc(-c4cnc5ccc(OCCCS(C)(=O)=O)nn45)cc23)CC1 [III-51]
8.14

Now this one: C[C@@H](N)COc1ccc2ncc(-c3cc4c(N5CCC(CO)CC5)nccc4o3)n2n1 [III-2]
8.74

Now this one: CC(C)(C)OC(=O)N1CCN(c2nccc3oc(-c4cnc5ccc(OC[C@H]6CCC(=O)N6)nn45)cc23)CC1 [III-70]
8.32

Now this one: N[C@H]1C[C@H](Oc2ccc3ncc(-c4cc5c(N6CCNCC6)nccc5o4)n3n2)C1 [III-103]
8.04

Now this one: C[C@H](N)COc1ccc2ncc(-c3cc4c(N5CCC(CO)CC5)nccc4o3)n2n1 [III-22]
8.19

Now this one: CN(C)C1CCN(c2nccc3oc(-c4cnc5ccc(OCCCS(C)(=O)=O)nn45)cc23)CC1 [III-55]
8.43

Now this one: C[C@H](N)COc1ccc2ncc(-c3cc4c(N5CCOC(C)(C)C5)nccc4o3)n2n1 [III-128]
7.89

Now this one: CC1(C)CN(c2nccc3oc(-c4cnc5ccc(OC[C@@H]6CCC(=O)N6)nn45)cc23)CCO1 [III-132]
8.17

Now this one: CN(CCCN1CCCC1)c1nccc2oc(-c3cnc4ccc(O[C@H]5C[C@H](N)C5)nn34)cc12 [III-97]
8.25

Now this one: COC[C@H]1CCCN1c1nccc2oc(-c3cnc4ccc(OC[C@@H]5COCCN5)nn34)cc12 [III-37]
8.96

Now this one: C[C@@H](N)COc1ccc2ncc(-c3cc4c(N5CCOC(C)(C)C5)nccc4o3)n2n1 [III-124]
7.77

Now this one: CN1CCN(c2nccc3oc(-c4cnc5ccc(OC[C@H]6CCC(=O)N6)nn45)cc23)CC1 [III-61]
9.00

###

Please go through the items and note down their IC50.
tgt: MKNK1 (Homo sapiens, UniProt Q9BUB5, T385D)
Construct: GST (N); purchased Carna Biosciences 02-145; host or cells: insect cells (baculovirus expression system)
assayName: MKNK1 kinase high ATP assay (TR-FRET-based)
Assay type: biochemical
protocolConditions: Table 2a; 2 mM ATP, 15 min preincubation
Reply with just the number (in nM).

Any idea what IC50 was measured for O=C1CNC[C@@H](COc2ccc3ncc(-c4cc5ccccc5o4)n3n2)N1 ?
34.1

Now this one: O=C(NCCOc1ccc2ncc(-c3cc4ccccc4o3)n2n1)C1CCC1
20.6

Now this one: CC(=O)N1CCC[C@H]1CCOc1ccc2ncc(-c3cc4cc(Cl)ccc4o3)n2n1
35.2

Now this one: O=C(c1ccc(Cl)cc1)N1CCC[C@H]1CCOc1ccc2ncc(-c3cc4ccccc4o3)n2n1
10.1

Now this one: CC(C)(C)NC(=O)COc1ccc2ncc(-c3cc4ccccc4o3)n2n1
70

Now this one: Cc1ccccc1C(=O)NCCOc1ccc2ncc(-c3cc4ccccc4o3)n2n1
14.4

###

tgt: MKNK1 (Homo sapiens, UniProt Q9BUB5, T385D)
Construct: GST (N); purchased Carna Biosciences 02-145; host or cells: insect cells (baculovirus expression system)
assayName: MKNK1 kinase high ATP assay (TR-FRET-based)
Format: biochemical
protocolConditions: Table 2b; 2 mM ATP, 15 min preincubation
Experimental: MKNK1 Kinase High ATP Assay MKNK1-inhibitory activity at high ATP of compounds of the present invention after their preincubation with MKNK1 was quantified employing the TR-FRET-based MKNK1 high ATP assay as described in the following paragraphs. […]
Please go through the items and note down their IC50.
Reply with just the number (in nM).

Any idea what IC50 was measured for CS(=O)(=O)CCCOc1ccc2ncc(-c3cc4c(N5CCNCC5)cccc4o3)n2n1 ?
0.8

Now this one: CC1(C)CN(c2cccc3oc(-c4cnc5ccc(OC[C@@H]6CCC(=O)N6)nn45)cc23)CCO1
39.5

Now this one: c1cc(N2CCOCC2)c2cc(-c3cnc4ccc(OC[C@H]5CNCCO5)nn34)oc2c1
20

Now this one: C[C@H]1COCCN1c1cccc2oc(-c3cnc4ccc(OC[C@@H]5CCC(=O)N5)nn34)cc12
24.4

Now this one: C[C@@H]1CNCCN1c1cccc2oc(-c3cnc4ccc(OCCCS(C)(=O)=O)nn34)cc12
5.9

###

tgt: MKNK1 (Homo sapiens, UniProt Q9BUB5, T385D)
Construct: GST (N); purchased Carna Biosciences 02-145; host or cells: insect cells (baculovirus expression system)
assayName: MKNK1 kinase assay (MKNK1 TR-FRET assay)
Type: biochemical
protocolConditions: Table 1c; 10 μM ATP, 15 min preincubation
measuredEndpoint: IC50 (nM)
Reply with just the number (in nM).

Any idea what IC50 was measured for CC1(C)CN(c2nccc3oc(-c4cnc5ccc(O[C@H]6C[C@H](N)C6)nn45)cc23)CCO1 ?
16.8

Now this one: O=C1CC[C@H](COc2ccc3ncc(-c4cc5c(N6CCN(c7ccccc7)CC6)nccc5o4)n3n2)N1
3.5

Now this one: C[C@@H](N)COc1ccc2ncc(-c3cc4c(N5CCOCC5)nccc4o3)n2n1
8.4

Now this one: COCCN(C)c1nccc2oc(-c3cnc4ccc(OC[C@H](C)N)nn34)cc12
2.1

Now this one: C[C@@H]1COCCN1c1nccc2oc(-c3cnc4ccc(OCCCS(C)(=O)=O)nn34)cc12
1

Now this one: C[C@H](N)COc1ccc2ncc(-c3cc4c(N5CCCCC5)nccc4o3)n2n1
10.6

Now this one: CN(CCCO)c1nccc2oc(-c3cnc4ccc(OC[C@H]5CCC(=O)N5)nn34)cc12
0.6

Now this one: C[C@H]1CN(c2nccc3oc(-c4cnc5ccc(OC[C@H]6CCC(=O)N6)nn45)cc23)CCO1
2.2

Now this one: CN1CCC(N(C)c2nccc3oc(-c4cnc5ccc(O[C@H]6C[C@H](N)C6)nn45)cc23)CC1
5.7

Now this one: CS(=O)(=O)CCCOc1ccc2ncc(-c3cc4c(N5CCC(CO)CC5)nccc4o3)n2n1
1.5

Now this one: CS(=O)(=O)CCCOc1ccc2ncc(-c3cc4c(N5CCN(c6ccccc6)CC5)nccc4o3)n2n1
20.8

Now this one: COc1ccc2ncc(-c3cc4c(N5CCN(c6ccccc6)CC5)nccc4o3)n2n1
8.4

Reference for the values: patent US20160287589A1
